Origin of values: patent US20210253718A1

Molecular target: T1, FZD9 cysteine-rich domain (CRD), MYC-tagged and GPI-anchored on CHO cells (human, UniProt O00144 35-161, GPI anchor)
T1 construct: also called FZD9 CRD; CHO-myc-FZDGPI; not shown: MYC tag and GPI anchor signal
T1 sequence: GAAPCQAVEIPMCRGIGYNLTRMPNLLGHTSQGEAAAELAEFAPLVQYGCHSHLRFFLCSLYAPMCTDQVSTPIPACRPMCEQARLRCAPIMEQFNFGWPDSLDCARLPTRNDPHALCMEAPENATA
Assay: flow cytometry, CHO-CRD cells;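 further: flow cytometry of Fab binding to CHO cells overexpressing a Frizzled CRD, with binding defined as median fluorescence over twice that of CHO cells lacking any Frizzled CRD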
endpoint.label: median fluorescence
I only need the number, thanks.

Some binders with known median fluorescence results, for comparison:
binder="Fab-2923 (Fab, V domains shown, Fab; also called Fv-2923) VH: EVQLVESGGGLVQPGGSLRLSCAASGFNLYYYYMHWVRQAPGKGLEWVASIYSSSGSTSYADSVKGRFTISADTSKNTAYLQMNSLRAEDTAVYYCARGAMDYWGQGTLVTVSS VL: DIQMTQSPSSLSASVGDRVTITCRASQSVSSAVAWYQQKPGKAPKLLIYSASSLYSGVPSRFSGSRSGTDFTLTISSLQPEDFATYYCQQWYGYSALITFGQGTKVEIK" reported_result=4.83
binder="Fab-2903 (Fab, V domains shown, Fab; also called Fv-2903) VH: EVQLVESGGGLVQPGGSLRLSCAASGFNLSYYYIHWVRQAPGKGLEWVASIYPYSSYTSYADSVKGRFTISADTSKNTAYLQMNSLRAEDTAVYYCARGAIDYWGQGTLVTVSS V domain: DIQMTQSPSSLSASVGDRVTITCRASQSVSSAVAWYQQKPGKAPKLLIYSASSLYSGVPSRFSGSRSGTDFTLTISSLQPEDFATYYCQQWGGGSSLFTFG" reported_result=3.11

Now look at this one.
# input // lookup median fluorescence for Fab-2901 (Fab, V domains shown, Fab; also called Fv-2901) VH: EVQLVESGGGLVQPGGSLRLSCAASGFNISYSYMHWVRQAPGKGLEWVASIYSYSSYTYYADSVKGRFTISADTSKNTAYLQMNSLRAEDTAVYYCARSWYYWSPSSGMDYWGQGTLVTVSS VL: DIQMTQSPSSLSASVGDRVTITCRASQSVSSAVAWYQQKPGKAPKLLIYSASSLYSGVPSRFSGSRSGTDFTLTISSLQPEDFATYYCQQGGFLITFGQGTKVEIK
# output 3.25
